# credit: PubChem BioAssay

test: small-molecule binders of probe aLefty1, primary screen, biochemical, small-molecule microarray, 635/667 nm fluorescence (AID 1153); settings: higher = more signal;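 further: score merges spot fluorescence with signal-to-noise ratio from the scanned slide images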
Output Condition met for composite z-score not less than -0.1; output Condition not met otherwise.

{"smiles": "COc1ccc([Si](C)(C)[C@H]2[C@H](CC(=O)N3CCC[C@H]3CO)O[C@@]3(C(=O)N(C)c4ccccc43)[C@@H]2C)cc1", "assignedLabel": "Condition met"}
{"smiles": "COCCCNC(=O)[C@@]1(Cc2ccccc2I)c2ccccc2C(=O)N(Cc2ccccc2OC)[C@H]1c1ccc(CO)cc1", "assignedLabel": "Condition not met"}
{"smiles": "COc1cccc(C)c1NC(=O)O[C@H]1[C@H](OC(=O)Nc2ccccc2-c2ccccc2)[C@@H](OC(=O)Nc2ccccc2-c2ccccc2)[C@@H](OC)O[C@@H]1CO", "assignedLabel": "Condition met"}

Moving on to another compound below.
Lookup: Quick check, composite z-score >= -0.1? COCCOC(=O)N1C(=O)[C@@]2(c3ccccc31)[C@H](C(=O)Nc1nc3ccccc3s1)[C@H]1C(=O)O[C@H](c3ccccc3)[C@H](c3ccccc3)N1[C@@H]2c1ccccc1OCCO
Found: Condition met

* * *

experiment: RPMI8226 myeloma cell viability, profiling panel, resazurin fluorescence, basal, 24 h, PK04 Diversity Set (AID 1180); details: higher = more signal;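 further: RPMI8826 multiple myeloma cell line at 5000 cells per well; test concentration not given here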
Output true (1) for z-score not less than -0.4; output false (0) otherwise.

Below, 3 molecules whose answers are already recorded.
{"molecule": "COc1ccc([Si](C)(C)[C@H]2[C@H](CC(=O)N3CCC[C@H]3CO)O[C@@]3(C(=O)N(Cc4cccc(N5CCCCC5=O)c4)c4ccccc43)[C@@H]2C)cc1", "assignedLabel": "true (1)"}
{"molecule": "O=C1C2C=CC(C(O)c3ccccn3)N(Nc3ccc([N+](=O)[O-])cc3)C2C(=O)N1c1ccccc1 (stereo unspecified)", "assignedLabel": "false (0)"}
{"molecule": "CC(C)c1ccc(NN2C(C(O)C(C)c3ccccc3)C=CC3C(=O)N(c4ccccc4)C(=O)C32)cc1 (stereo unspecified)", "assignedLabel": "false (0)"}

Lookup: Quick check, z-score >= -0.4? [N-]=[N+]=NCc1ccccc1[C@H]1OC(c2ccc(OCCCO)cc2)=N[C@@]1(Cc1ccccc1N=[N+]=[N-])C(=O)O
Found: true (1)

Lookup: And the next one, O=C/C=C/c1ccc(-c2ccccc2)cc1 ?
Found: false (0)

Lookup: And the next one, [N-]=[N+]=NCc1ccccc1[C@H]1OC(c2ccc(OCCCO)cc2)=N[C@@]1(Cc1ccccc1N=[N+]=[N-])C(=O)N1CCOCC1 ?
Found: false (0)

Lookup: And the next one, COCCOC(=O)N1C(=O)[C@@]2(c3cc(C#CCNC(N)=O)ccc31)[C@H](c1ccccc1OCCO)N1[C@H](c3ccccc3)[C@H](c3ccccc3)OC(=O)[C@H]1[C@@H]2C(=O)N1CCCCCCC1 ?
Found: false (0)

Lookup: And the next one, COCCOC(=O)N1C(=O)[C@@]2(c3cc(C#CC4=CCCCC4)ccc31)[C@H](c1ccc(O)cc1)N1[C@H](c3ccccc3)[C@H](c3ccccc3)OC(=O)[C@H]1[C@@H]2C(=O)N1CCc2cc(OC)c(OC)cc2C1 ?
Found: true (1)

Lookup: And the next one, COCCCNC(=O)[C@@]1(Cc2ccccc2I)c2ccccc2C(=O)N(Cc2ccccc2C(F)(F)F)[C@H]1c1ccc(CO)cc1 ?
Found: true (1)

Lookup: And the next one, CC(C)c1ccc(NN2C(C(O)C3=C[C@H]4C[C@@H](C3)C4(C)C)C=CC3C(=O)N(c4ccccc4)C(=O)C32)cc1 (stereo partly specified) ?
Found: true (1)

Lookup: And the next one, COC(=O)[C@@]1(Cc2ccc(OC)cc2)[C@H]2c3cc(C(=O)N(C)C)n(Cc4c(CO)[nH]cc(C)c4=O)c3C[C@H]2CN1C(=O)c1ccccc1 ?
Found: false (0)

Lookup: And the next one, COC(=O)[C@]1(Cc2ccccc2CN=[N+]=[N-])N=C(c2ccc(OCCCO)cc2)O[C@@H]1c1ccccc1N=[N+]=[N-] ?
Found: false (0)

Lookup: And the next one, CCOC(=O)C[C@H]1[C@H](OC(=O)c2cc3ccccc3oc2=O)[C@@H](NC(=O)Cc2ccc(OC)cc2)c2cc(OCCCO)ccc2N1C(=O)Cc1ccc(OC)cc1 ?
Found: true (1)

Lookup: And the next one, C=CCC(OC(C)=O)[C@@H]1[C@@H](N(Cc2ccc(-c3ccccc3)cc2)C(=O)Cc2ccc(OC)cc2)c2cc(OCCCO)ccc2N1C(=O)Cc1ccc(OC)cc1 (stereo partly specified) ?
Found: true (1)

Lookup: And the next one, OCCCc1cc[n+](Cc2cc3c(cc2Br)OCO3)cc1 ?
Found: true (1)

Lookup: And the next one, CCCC=C(CCC)[C@@H](NC(=O)c1ccc(C(=O)OC)cc1)c1ccc(C(=O)OC)cc1 ?
Found: true (1)

* * *

Each entry below lists one item and its recorded composite z-score value.
molecular target: Fibroblast growth factor 10 (Homo sapiens) (UniProt O15520); experiment: FGF10 binders on small-molecule microarrays, primary screen, biochemical, small-molecule microarray, 635 nm fluorescence (AID 1102); conditions: FGF10 binding, fluorescence 635 nm, higher = more signal
Sequence (O15520 whole entry, looked up): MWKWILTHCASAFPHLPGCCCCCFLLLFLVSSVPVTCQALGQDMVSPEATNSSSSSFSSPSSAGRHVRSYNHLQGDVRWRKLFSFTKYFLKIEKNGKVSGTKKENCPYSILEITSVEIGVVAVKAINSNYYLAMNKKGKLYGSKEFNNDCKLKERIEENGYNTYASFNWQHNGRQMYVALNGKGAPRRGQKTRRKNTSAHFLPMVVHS
Write the number on its own, no unit after it.

Sample answers from the record:
{"compound": "O=C1c2ccccc2[C@@]2(Cc3ccccc3N(CC(F)(F)F)C2=O)[C@H](c2ccc(CO)cc2)N1Cc1ccccc1", "result": -0.0636}
{"compound": "O=C1NC(=O)C2C1C=CC(C(O)C(c1ccccc1)c1ccccc1)N2Nc1ccccn1 (centres undefined)", "result": 0.909}
{"compound": "C=C(C(=O)CC[C@H](OC(=O)c1ccccc1-c1ccccc1C(=O)O)c1ccc(OCCO)cc1)C(C)C", "result": 1.04}

Field: next compound
Lookup: Consider the compound C=CCC(OC(C)=O)[C@@H]1[C@@H](N(Cc2ccc(-c3ccccc3)cc2)C(=O)Cc2ccc(OC)cc2)c2cc(OCCCO)ccc2N1C(=O)c1ccc2ccccc2c1 (some centres undefined) and give its measured composite z-score.
Found: -0.0566

* * *

Each entry below lists one item and its recorded composite z-score value.
tested on: Chordin-like protein 2 (CHRDL2); assay: CHRDL2 small-molecule binders, primary screen, biochemical, small-molecule microarray, 635 nm fluorescence (AID 1126); conditions: small-molecule microarray binding, fluorescence 635 nm; higher = more signal;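 further: printed compound slides probed with Chrdl2 protein at 4 µg/mL for 1 h at 4 C; score merges 667 nm emission intensity with signal to noise over three replicate slides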
Write the number on its own, no unit after it.

Sample answers from the record:
{"compound": "CCOC(=O)C[C@H]1[C@H](OC(=O)c2cc3ccccc3oc2=O)[C@@H](NC(=O)Cc2ccc(OC)cc2)c2cc(OCCCO)ccc2N1C(=O)Cc1ccc(OC)cc1", "result": 0.441}
{"compound": "Cc1ccc(N2C(=O)c3ccccc3[C@@H](C(=O)NCCN3CCOCC3)[C@@H]2c2ccc(CO)cc2)nc1", "result": -1.27}
{"compound": "COC(=O)C(CC#Cc1ccc2c(c1)[C@]1(C(=O)N2)[C@H](c2ccccc2OCCO)N2[C@H](c3ccccc3)[C@H](c3ccccc3)OC(=O)[C@H]2[C@@H]1C(=O)N1CCN(c2ncccn2)CC1)C(=O)OC", "result": 1.1}
{"compound": "CC(C)(C)OC(=O)CC[C@@]1(C(=O)N2CCOCC2)N=C(c2ccc(OCCCO)cc2)O[C@@H]1c1ccccc1CN=[N+]=[N-]", "result": -0.406}
{"compound": "[N-]=[N+]=Nc1ccccc1C[C@@]1(C(=O)NCc2ccccc2)N=C(c2ccc(OCCCO)cc2)O[C@@H]1c1ccccc1", "result": 0.621}

Lookup: Under Chordin-like protein 2 (CHRDL2): composite z-score value of C=C[C@H](OC)[C@@H](O)c1ccc(OC)c(O)c1 ?
Found: -1.01

Lookup: And the next one, CCCCC(=C=CC[C@H](O)c1cccc(OCCO)c1)C[C@H](O)c1cc(Cl)cc(Cl)c1O ?
Found: 0.0963

Lookup: And the next one, O=C/C=C/c1ccc(-c2ccccc2)cc1 ?
Found: 0.438

* * *

experiment: E. coli acrAB mutant growth effects, primary screen, E. coli filamentation inducers, strain DRC39, OD650, 24 h (AID 1178); conditions: higher = more signal, called active from +8 up or from −8 down;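 further: growth measured as culture turbidity by optical density at 650 nm; test concentration not given here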
Each entry below lists one item and its recorded z-score value.
Write the number on its own, no unit after it.

Sample answers from the record:
{"smiles": "C[C@]1(C(=O)NCC(F)(F)F)c2ccccc2C(=O)N(Cc2cc(C(F)(F)F)cc(C(F)(F)F)c2)[C@H]1c1ccc(CO)cc1", "z-score": 0.712}
{"smiles": "COc1ccc([Si](C)(C)[C@@H]2[C@@H](CC(=O)N3Cc4ccccc4C[C@H]3CO)O[C@]3(C(=O)N(Cc4ccc(I)cc4)c4ccccc43)[C@H]2C)cc1", "z-score": 0.101}

Lookup: Consider the molecule COCCOC(=O)N1C(=O)[C@@]2(c3ccccc31)[C@H](C(=O)Nc1nc3ccccc3s1)[C@H]1C(=O)O[C@H](c3ccccc3)[C@H](c3ccccc3)N1[C@@H]2c1ccccc1OCCO and give its measured z-score.
Found: 0.0795
